target: Adrenergic receptor alpha-2 (Rattus norvegicus, UniProt P22086+P19328+P22909); assay: Displacement of [3H]RX-821002 from alpha-2 adrenergic receptor; format: protein assay
assay readout: log10(Ki) (log10 of the value in nM)
Note: values are log10 of Ki expressed in nM.

# mol smiles, endpoint value
records = [
    ("COc1ccc2cc3n(c2c1)CCNC3", 3.65),
    ("c1ccc2c(c1)cc1n2CCNC1", 2.71),
    ("c1ccc2c(c1)nc1n2CCNC1", 4.13),
    ("COc1ccc2c(c1)cc1n2CCNC1", 3.98),
    ("c1ccc2c3c([nH]c2c1)CNCC3", 3.20),
]

// moving on: another record for log10(Ki)
What log10(Ki) value was documented for this compound, "c1ccc2c3c([nH]c2c1)C1=NCCN1CC3" ?
3.20

---

experiment: Displacement of [3H]2-BFI from imidazoline receptor I-2; set-up: species or system Rattus norvegicus
assay readout: pIC50
One number for each entry, as −log10 of the molar value.

What pIC50 value was documented for this molecule, "COc1ccc2c(c1)cc1n2CCNC1" ?
5.08

---

experiment: Displacement of [3H]2-BFI from imidazoline receptor I-2; set-up: species or system Rattus norvegicus
Classification by Ki | ranges: I = under 9 nM, II = from 9 nM up to 500 nM, III = 500 nM and over

// below: answered compounds
# compound, category label
data = [
    ("COc1ccc2[nH]c3c(c2c1)CCNC3", "III"),
    ("COc1ccc2[nH]c3c(c2c1)CCN=C3", "II"),
    ("COc1ccc2c(c1)cc1n2CCNC1", "I"),
    ("COc1ccc2c3c([nH]c2c1)C=NCC3 [CGS-19281A]", "II"),
]

Kindly identify the class of "c1ccc2c(c1)nc1n2CCNC1" .
III

Kindly identify the class of "c1ccc2c3c([nH]c2c1)C1=NCCN1CC3" .
III

Kindly identify the class of "c1ccc2c(c1)cc1n2CCNC1" .
I

Kindly identify the class of "c1ccc2c3c([nH]c2c1)CNCC3" .
II

Kindly identify the class of "C1=NCCc2c1[nH]c1ccccc21" .
I

Kindly identify the class of "COc1ccc2cc3n(c2c1)CCNC3" .
II
